Test: protein stability index of a GFP-peptide fusion (yeast GPS) (PSI 1-4); higher = more stable; sorted into four equal gates, so the index is relative within each strain
Details: pdr5∆
value.type: protein stability index
In your answer, state the number alone without any accompanying words.

Which value of protein stability index has been reported for TLIDLVKHSPGAIKPFT [ECM29] in the records?
2.93

GET /values?readout=protein stability index&item= AISGKKTTYYYYNEEGI [RPC82]
2.97

Report protein stability index for EAVEIPVNSADGKEDVE [SME1] please.
2.8

So what does the record say about protein stability index for HDGGFDLVHIKDSLDNT [RPS4A] ?
2.26

Recorded protein stability index for AIANTLLYLRLKNIYVS [PRP8] , please?
1.53

Could you share which protein stability index value was measured for KDLKDDSIYTKPVKVAL [YJL039C/NUP192] ?
2.98

Please look up its protein stability index: AELRPLQFKSIREIDVA [RPS7A]
1.67

Please look up its protein stability index: TGMEPGKTSFFQALGVP [RPP0]
3.2

GET /values?readout=protein stability index&item= PTMYTRLCICSGMLFEM [SIN4]
1.28

Report protein stability index for DGKLEPSTRSNFILEVF [YJL039C/NUP192] please.
1.61

Which measured protein stability index value corresponds to HDELDMNECIADQDMED [ESC2] ?
2.64

Recorded protein stability index for REKYNMKGPAALWDVQF [ARP9] , please?
3.59

Entry under review: PEESKGSFKYITARSAF [SWP82] . Reported protein stability index?
3.04

Recorded protein stability index for FFTNPNKKRPSSKKVFS [YOR098C/NUP1] , please?
3.1

Can you look up the measured protein stability index of VLRKQKRYTVKKALAKA [RPL14A] for me?
2.14

* * *

I'd appreciate it if you could supply protein stability index values for the items below.
Test: protein stability index of a GFP-peptide fusion (yeast GPS) (PSI 1-4); higher = more stable; sorted into four equal gates, so the index is relative within each strain
Conditions: doa10∆
Hey, just send me the number, nothing else.

// lookup protein stability index for GTSLKVAPVSEIVNMVP [SIR2]
2.24

Fill blank: measured protein stability index of the sequence LIEKEIQPKITELKKKL [SMC1] is ____.
3.02

Report protein stability index for DYPSTSLDIRHDFIKGL [NUT1] please.
2.9

# query: protein stability index of entry IAEGQKKFATVPTGGAS [RPP2B]
2.81

Recorded protein stability index of SSFTFGSTTIEKKNDEN [YLR335W/NUP2] , please.
2.79

Item under review: ILSSVNRTVLLKIFKIF [SRB8] . Reported protein stability index?
1.37

Record request: protein stability index value, item LENQKDLVIVDENELKK [MTW1]
3.65

Endpoint output: protein stability index of KVLGVKDMSPILGELKR [LRP1] . Value?
2.71

# get_value(readout='protein stability index', item= SKAFKESSDFGAIILTK [SRP54] )
2.12

Could you tell me which protein stability index is on file for MVSHKTARGKAALERLK [RPL16B] ?
2.92

# lookup: protein stability index of FIMVKGCIPGNRKRIVT [RPL3]
1.39

# input sequence: YLQETAISGKKTTYYYY [RPC82] ; wanted: its protein stability index
2.77

Item under review: ALYIAMMTRRVVMAMYN [RET1] . Reported protein stability index?
3.11

Returns the measured protein stability index for the input sequence. Input: GLVHDLCHPKKEKYGLA [SMC1]
2.59

I have this sequence here, PKSTAPIFSFGKQEENG [YOR098C/NUP1] , and I need its recorded protein stability index.
2.24

So what does the record say about protein stability index for QRQYKVQLLLHINSILL [SNF11] ?
1.88

What does the data say about its protein stability index? Entry: VRTNTLTKAAIVQIDAT [RPS8A]
2.23

Name the recorded protein stability index for DGVTHALYPQEARLRNL [RPB2] .
3.22

Reported protein stability index, sequence ELENSSPELKAELRPLQ [RPS7A] : ____
3.04

Query (sequence): AKWAPTLRTISFKGSPN [SNF2] ; field requested: protein stability index
3.02

Return reported protein stability index; argument: EDEDEDLFGDSNKSNST [SSN2]
2.69

What does the data say about its protein stability index? Entry: EESWEKVVEFAITHMID [SCL1]
2.62

Which protein stability index reading was recorded for the sequence KFKHIDDKYGRKFALEK [SRP72] ?
2.59

Give its protein stability index value. Item: VPPPPVRPSISFNESQR [RPO21]
2.47

Every entry's value here was drawn from the supplement of paper PMC9732359.
